Assay: Example 6 pharmacokinetics assay for PKPD study (plasma, tumor, liver)
Assay type: in vivo, BALB/c nude mice
Settings: mouse, liver, po; 100 mg/kg, single dose; 6 h; read-out: Concentration in Liver (mean ± SEM)

[
  {
    "MOLECULE": "CC(C)(C)c1nc(-c2cccc(NS(=O)(=O)c3c(F)cccc3F)c2F)c(-c2ccnc(N)n2)s1 [Dabrafenib, dabrafenib, reference compound]",
    "concentration at 6 h, ng/g": 157
  }
]

* * *

Assay: Example 8 pharmacokinetics assay for PKPD study (plasma, tumor, liver)
Type: in vivo, BALB/c nude mice
Conditions: mouse, liver, po, 10 mg/kg, p.o., single dose; 6 h; read-out: Concentration in Liver (mean ± SEM)
Protocol: For the PK and PD study, agents were administered to BALB/c nude mice bearing A375 human melanoma xenografts tumors. encorafenib, Compound 8, Compound 26, Compound 38, and Compound 39 were dosed p.o. once on day 1. Encorafenib was dosed at 35 mg/kg, Compound 8, Compound 26, Compound 38, and Compound 39 were dosed at 10 mg/kg. This study was non-GLP. The plasma samples were collected at predetermined time points for PK analysis. […]

[
  {
    "MOLECULE": "CCN(C)S(=O)(=O)Nc1ccc(F)c(Oc2ccc3ncn([C@H]4COC5(CCN(C6CC7(C6)CN(c6cc8c(cc6F)c(N6CCC(=O)NC6=O)nn8C)C7)CC5)C4)c(=O)c3c2)c1C#N",
    "concentration at 6 h, ng/g": 11800
  },
  {
    "MOLECULE": "CCN(C)S(=O)(=O)Nc1ccc(F)c(Oc2ccc3ncn(C4CC5(CCN(C6CCC(c7cc8c(cc7F)c(N7CCC(=O)NC7=O)nn8C)CC6)CC5)C4)c(=O)c3c2)c1C#N (single isomer, unassigned)",
    "concentration at 6 h, ng/g": 379
  },
  {
    "MOLECULE": "CCN(C)S(=O)(=O)Nc1ccc(F)c(Oc2ccc3ncn([C@H]4COC5(CCC(N6CCC(c7cc8c(cc7F)c(N7CCC(=O)NC7=O)nn8C)C(F)(F)C6)CC5)C4)c(=O)c3c2)c1C#N (single isomer, unassigned)",
    "concentration at 6 h, ng/g": 25500
  }
]

* * *

Test: Pharmacokinetics in female BALB/c nude mice bearing A375 xenografts, 1 day dosing (PK and PD study): plasma, tumor and brain concentrations, AUC
Type: in vivo
Settings: mouse, plasma, po, 5 mg/kg, 5 mg/kg p.o. BID × 1 day; post 2nd dose; 4 h; read-out: Mean Concentration in Plasma ± SEM

[
  {
    "MOLECULE": "CCN(C)S(=O)(=O)Nc1ccc(F)c(Oc2ccc3ncn(C4CC5(CCN(C6CC7(C6)CN(c6cc8c(cc6F)c(N6CCC(=O)NC6=O)nn8C)C7)CC5)C4)c(=O)c3c2)c1C#N (stereo not shown) [Compound 141]",
    "concentration at 4 h, ng/mL": 1750
  }
]

* * *

Experiment: Pharmacokinetics in female BALB/c nude mice bearing A375 xenografts, 1 day dosing (PK and PD study): plasma, tumor and brain concentrations, AUC
Assay type: in vivo
Conditions: mouse, plasma, po; 100 mg/kg p.o. QD × 1 day; read-out: Plasma AUC at 24 hours, Average

[
  {
    "COMPOUND": "CC(C)(C)c1nc(-c2cccc(NS(=O)(=O)c3c(F)cccc3F)c2F)c(-c2ccnc(N)n2)s1 [Dabrafenib, dabrafenib, reference compound]",
    "AUC at 24 h (ng·h/mL)": 32100
  }
]

* * *

Assay: Pharmacokinetics in female BALB/c nude mice bearing A375 xenografts, 1 day dosing (PK and PD study): plasma, tumor and brain concentrations, AUC
Assay type: in vivo
Details: mouse, plasma, po, 10 mg/kg, 10 mg/kg p.o. BID × 1 day; post 1st dose; 0.25 h; read-out: Mean Concentration in Plasma ± SEM

[
  {
    "SMI": "CCN(C)S(=O)(=O)Nc1ccc(F)c(Oc2ccc3ncn([C@H]4COC5(CCN(C6CC7(C6)CN(c6cc8c(cc6F)c(N6CCC(=O)NC6=O)nn8C)C7)CC5)C4)c(=O)c3c2)c1C#N",
    "UNIT SPEC": "ng/mL",
    "concentration at 0.25 h": 7140
  }
]

* * *

Assay: Pharmacokinetics in female BALB/c nude mice bearing A375 xenografts, 1 day dosing (PK and PD study): plasma, tumor and brain concentrations, AUC
Assay type: in vivo
Details: mouse, plasma, po, 3 mg/kg, 3 mg/kg p.o. BID × 1 day; post 2nd dose; 24 h; read-out: Mean Concentration in Plasma ± SEM
PROPERTY MEASURED: concentration at 24 h

[
  {
    "SMI": "CCN(C)S(=O)(=O)Nc1ccc(F)c(Oc2ccc3ncn([C@H]4COC5(CCN(C6CC7(C6)CN(c6cc8c(cc6F)c(N6CCC(=O)NC6=O)nn8C)C7)CC5)C4)c(=O)c3c2)c1C#N",
    "OBSERVED": "20.5 ng/mL"
  }
]

* * *

Target: BRAF V600E (Homo sapiens, UniProt P15056+Q96SW2, V600E)
Construct: knock-in of the HiBiT tag to the endogenous BRAF V600E locus; host or cells: A375.10 (A375 clonal line, CRISPR HiBiT knock-in at the endogenous BRAF V600E locus)
Sequence (P15056 whole entry V600E): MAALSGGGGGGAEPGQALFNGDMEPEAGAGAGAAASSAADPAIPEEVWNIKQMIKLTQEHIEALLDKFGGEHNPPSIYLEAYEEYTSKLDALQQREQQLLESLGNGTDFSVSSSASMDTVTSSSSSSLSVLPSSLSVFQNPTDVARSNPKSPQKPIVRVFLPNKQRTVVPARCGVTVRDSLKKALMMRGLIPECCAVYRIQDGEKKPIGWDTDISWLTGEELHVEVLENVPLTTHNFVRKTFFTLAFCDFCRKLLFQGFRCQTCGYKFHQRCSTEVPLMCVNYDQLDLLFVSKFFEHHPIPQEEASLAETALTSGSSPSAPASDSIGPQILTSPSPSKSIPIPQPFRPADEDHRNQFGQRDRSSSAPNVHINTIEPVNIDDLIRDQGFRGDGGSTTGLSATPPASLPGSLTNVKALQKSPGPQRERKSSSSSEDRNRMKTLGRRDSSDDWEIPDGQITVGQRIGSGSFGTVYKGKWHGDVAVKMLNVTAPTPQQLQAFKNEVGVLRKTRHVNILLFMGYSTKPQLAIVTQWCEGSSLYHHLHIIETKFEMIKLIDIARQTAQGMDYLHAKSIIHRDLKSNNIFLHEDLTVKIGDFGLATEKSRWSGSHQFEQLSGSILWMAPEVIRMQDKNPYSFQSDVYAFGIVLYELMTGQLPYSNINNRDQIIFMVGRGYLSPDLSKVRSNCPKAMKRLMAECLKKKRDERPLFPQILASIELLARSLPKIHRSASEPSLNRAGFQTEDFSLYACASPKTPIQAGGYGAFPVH
Sequence (Q96SW2 whole entry): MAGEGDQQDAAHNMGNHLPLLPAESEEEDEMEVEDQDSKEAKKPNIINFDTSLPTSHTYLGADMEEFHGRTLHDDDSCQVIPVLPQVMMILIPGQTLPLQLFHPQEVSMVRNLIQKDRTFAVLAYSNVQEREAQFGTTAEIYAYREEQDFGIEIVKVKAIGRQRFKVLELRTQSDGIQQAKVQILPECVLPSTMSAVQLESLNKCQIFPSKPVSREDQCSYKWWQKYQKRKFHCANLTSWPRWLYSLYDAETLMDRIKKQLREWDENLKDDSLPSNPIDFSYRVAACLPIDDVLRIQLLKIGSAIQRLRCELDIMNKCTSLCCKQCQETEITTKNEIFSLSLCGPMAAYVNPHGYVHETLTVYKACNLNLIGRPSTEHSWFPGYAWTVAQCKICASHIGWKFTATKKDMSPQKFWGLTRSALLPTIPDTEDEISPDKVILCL
Sequence (Q16531 whole entry partner): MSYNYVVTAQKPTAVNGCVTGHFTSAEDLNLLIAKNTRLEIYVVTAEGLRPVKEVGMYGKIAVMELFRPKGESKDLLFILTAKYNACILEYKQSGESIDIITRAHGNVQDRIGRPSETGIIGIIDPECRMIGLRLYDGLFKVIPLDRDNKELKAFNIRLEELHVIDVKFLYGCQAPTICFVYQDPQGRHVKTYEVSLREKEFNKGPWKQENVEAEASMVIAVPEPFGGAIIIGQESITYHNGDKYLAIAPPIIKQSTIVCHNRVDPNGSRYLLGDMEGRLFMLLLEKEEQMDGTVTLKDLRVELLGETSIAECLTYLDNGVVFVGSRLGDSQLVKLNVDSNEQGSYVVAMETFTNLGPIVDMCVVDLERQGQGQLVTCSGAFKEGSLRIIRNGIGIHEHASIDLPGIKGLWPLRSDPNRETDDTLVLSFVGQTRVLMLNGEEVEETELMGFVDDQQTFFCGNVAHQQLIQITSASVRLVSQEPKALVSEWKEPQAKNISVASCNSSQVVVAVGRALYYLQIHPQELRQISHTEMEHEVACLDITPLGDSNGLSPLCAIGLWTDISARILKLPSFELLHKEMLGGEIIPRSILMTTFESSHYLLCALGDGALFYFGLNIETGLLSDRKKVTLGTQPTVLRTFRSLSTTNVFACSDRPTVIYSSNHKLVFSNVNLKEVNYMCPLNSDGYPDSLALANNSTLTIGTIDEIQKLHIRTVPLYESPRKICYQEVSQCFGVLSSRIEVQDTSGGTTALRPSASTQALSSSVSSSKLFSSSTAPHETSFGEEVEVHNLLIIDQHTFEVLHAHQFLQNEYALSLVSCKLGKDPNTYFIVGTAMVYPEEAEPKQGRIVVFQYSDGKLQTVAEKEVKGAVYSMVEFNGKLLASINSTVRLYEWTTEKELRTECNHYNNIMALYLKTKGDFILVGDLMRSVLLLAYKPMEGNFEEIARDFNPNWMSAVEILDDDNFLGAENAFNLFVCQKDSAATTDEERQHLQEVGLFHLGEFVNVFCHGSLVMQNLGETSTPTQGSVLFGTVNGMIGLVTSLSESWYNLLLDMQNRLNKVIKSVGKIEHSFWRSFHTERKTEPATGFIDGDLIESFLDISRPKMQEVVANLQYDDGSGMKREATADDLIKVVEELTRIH
Experiment: BRAF V600E HiBiT Degradation Assay
Assay type: cell-based
Conditions: A375.10 cells, BRAF V600E, 2 hours; residual protein remaining; read-out: HiBiT-Degradation A375.10 BRAF 2 hours Emax
PROPERTY MEASURED: Emax

[
  {
    "MOLECULE": "CCN(C)S(=O)(=O)Nc1ccc(F)c(Oc2ccc3ncn(C4CCC5(CC4)CCN(C4CCC(c6ccc(NC7CCC(=O)NC7=O)cc6F)CC4)CC5)c(=O)c3c2)c1C#N (single isomer, unassigned)",
    "OBSERVED": "50 to 90%"
  },
  {
    "MOLECULE": "CCN(C)S(=O)(=O)Nc1ccc(F)c(Oc2ccc3ncn(C4CC5(CCN(C6CCC(c7cc8c(cc7F)c(N7CCC(=O)NC7=O)nn8C)CC6)CC5)C4)c(=O)c3c2)c1C#N (single isomer, unassigned)",
    "OBSERVED": "< 50%"
  },
  {
    "MOLECULE": "CCN(C)S(=O)(=O)Nc1ccc(F)c(Oc2ccc3ncn(C4CCC5(CC4)CCN(C4CCC(c6cc7c(cc6F)c(N6CCC(=O)NC6=O)nn7C)CC4)CC5)c(=O)c3c2)c1C#N (single isomer, unassigned)",
    "OBSERVED": "< 50%"
  },
  {
    "MOLECULE": "Cn1nc(N2CCC(=O)NC2=O)c2cc(F)c(C3CCC(N4CCC5(CC4)C[C@@H](n4cnc6ccc(Oc7c(F)ccc(NS(=O)(=O)C8CCCC8)c7C#N)cc6c4=O)CO5)CC3)cc21 (single isomer, unassigned)",
    "OBSERVED": "< 50%"
  },
  {
    "MOLECULE": "CCN(C)S(=O)(=O)Nc1ccc(F)c(Oc2ccc3ncn([C@H]4COC5(C4)CN(C4CCC(c6cc7c(cc6F)c(N6CCC(=O)NC6=O)nn7C)CC4)C5)c(=O)c3c2)c1C#N (single isomer, unassigned)",
    "OBSERVED": "< 50%"
  },
  {
    "MOLECULE": "CCN(C)S(=O)(=O)Nc1ccc(F)c(Oc2ccc3ncn(C4CC5(CCN(C6CCN(c7cc8c(cc7F)c(N7CCC(=O)NC7=O)nn8C)CC6)C5)C4)c(=O)c3c2)c1C#N (single isomer, unassigned)",
    "OBSERVED": "50 to 90%"
  },
  {
    "MOLECULE": "CCN(C)S(=O)(=O)Nc1ccc(F)c(Oc2ccc3ncnc(OC4CC5(CCN(C6CCC(c7cc8c(cc7F)c(N7CCC(=O)NC7=O)nn8C)CC6)CC5)C4)c3c2)c1C#N (single isomer, unassigned)",
    "OBSERVED": "50 to 90%"
  },
  {
    "MOLECULE": "CO[C@@H]1CCN(S(=O)(=O)Nc2ccc(F)c(Oc3ccc4ncc(C5CC6(CCN(C7CCC(c8cc9c(cc8F)c(N8CCC(=O)NC8=O)nn9C)CC7)CC6)C5)nc4c3)c2C#N)C1 (single isomer, unassigned)",
    "OBSERVED": "< 50%"
  },
  {
    "MOLECULE": "CCN(C)S(=O)(=O)Nc1ccc(F)c(Oc2ccc3ncn(C4CC5(CCN(C6CCC(c7cc8c(cc7F)c(N7CCC(=O)NC7=O)nn8C)CC6F)CC5)C4)c(=O)c3c2)c1F (single isomer, unassigned)",
    "OBSERVED": "< 50%"
  },
  {
    "MOLECULE": "Cn1nc(N2CCC(=O)NC2=O)c2cc(F)c(C3CCC(N4CCC5(CC4)CC(n4cnc6ccc(Oc7c(F)ccc(NS(=O)(=O)N8CC[C@@H](F)C8)c7C#N)cc6c4=O)C5)CC3)cc21 (single isomer, unassigned)",
    "OBSERVED": "< 50%"
  },
  {
    "MOLECULE": "Cn1nc(N2CCC(=O)NC2=O)c2cc(F)c(N3CC4(CC(N5CCC6(CC5)C[C@@H](n5cnc7ccc(Oc8c(F)ccc(NS(=O)(=O)C9CC9)c8C#N)cc7c5=O)CO6)C4)C3)cc21",
    "OBSERVED": "< 50%"
  },
  {
    "MOLECULE": "CCN(C)S(=O)(=O)Nc1ccc(F)c(Oc2ccc3ncn([C@H]4COC5(CCN(C6CCC(c7ccc(N[C@H]8CCC(=O)NC8=O)cc7F)CC6)CC5)C4)c(=O)c3c2)c1C#N (single isomer, unassigned)",
    "OBSERVED": "< 50%"
  },
  {
    "MOLECULE": "Cn1nc(N2CCC(=O)NC2=O)c2cc(F)c(N3CC4(CC(N5CCC6(CC5)C[C@@H](n5cnc7ccc(Oc8c(F)ccc(NS(=O)(=O)N9CCC%10(CC%10)C9)c8C#N)cc7c5=O)CO6)C4)C3)cc21",
    "OBSERVED": "50 to 90%"
  },
  {
    "MOLECULE": "CCN(C)S(=O)(=O)Nc1ccc(F)c(C(=O)c2ccc3ncn(C4CC5(C4)CN(C4CC6(C4)CN(c4cc7c(cc4F)c(N4CCC(=O)NC4=O)nn7C)C6)C5)c(=O)c3c2)c1F (centres unmarked)",
    "OBSERVED": "50 to 90%"
  },
  {
    "MOLECULE": "CCN(C)S(=O)(=O)Nc1ccc(F)c(Oc2ccc3ncn(C4CC5(CCN(C6CC7(C6)CN(c6cc8c(cc6F)c(N6CCC(=O)NC6=O)nn8C)C7)C5)C4)c(=O)c3c2)c1C#N (single isomer, unassigned)",
    "OBSERVED": "50 to 90%"
  },
  {
    "MOLECULE": "CN(CCO)S(=O)(=O)Nc1ccc(F)c(Oc2ccc3ncc(C4CC5(CCN(C6CC7(C6)CN(c6cc8c(cc6F)c(N6CCC(=O)NC6=O)nn8C)C7)CC5)C4)nc3c2)c1C#N (centres unmarked)",
    "OBSERVED": "50 to 90%"
  },
  {
    "MOLECULE": "CCN(C)S(=O)(=O)Nc1ccc(F)c(Oc2ccc3ncn(C4CC5(CCN([C@H]6C[C@@H](c7cc8c(cc7F)c(N7CCC(=O)NC7=O)nn8C)C6)CC5)C4)c(=O)c3c2)c1C#N",
    "OBSERVED": "50 to 90%"
  }
]

Numbers sourced from patent US20260297060A1.
